System: SR leukemia
Assay: NCI tumour cell line growth inhibition, 48 h
measurement label: TGI

Use these answered entries as a reference point.
CCOC(=O)/C=C(/C(=O)OCC)n1ccc(N)nc1=O :: > 100 µM
COC(=O)CCC(=O)CC1CC(=O)C2CCCN12 (stereo not given) :: > 100 µM
Cc1cc2c(cc1Cl)SC(=Nc1ccc(Cl)cc1)N(S(=O)(=O)c1ccccc1)S2(=O)=O :: > 100 µM
CC(=O)c1ccc2c3c1[C@@H]1O[C@@H]1c1cccc(c1-3)[C@@H]1O[C@H]21 :: > 100 µM
CCOC(=O)c1ccc(N2C(=S)N(C(=O)c3ccccc3)C(=Nc3ccccc3)C2=Nc2ccccc2)cc1 :: > 100 µM

What the record says about O=C1CCCCC(=O)OC2(CCCCC2=O)CC1 (stereo not given) : TGI is > 100 µM

What the record says about CC1(CF)SCc2nc3ccccc3n21 (stereo not given) : TGI is > 100 µM

What the record says about CC(=O)N1N=C(c2ccc3ccccc3c2O)CC1C(=O)c1ccco1 (stereo not given) : TGI is 18.6 µM

What the record says about CCCSc1ccc2[nH]c(/N=C/c3ccco3)cc2c1 : TGI is 35.7 µM

What the record says about C=C1C(=O)O[C@H]2[C@H]1CC/C(COC(=O)c1ccc(Cl)nc1)=C\CC[C@@]1(C)O[C@@H]21 : TGI is 38.8 µM
